- TARGET_OR_TEST_SYSTEM: antigen on NCI-H187 classic small cell lung carcinoma cells (ATCC Number: CRL-5804) recognised by PTA-2357
- PROTOCOL: competition flow cytometry on NCI-H187 cells against mouse PTA-2357; CHO-K1-derived
READOUT_NAME: Relative IC50 (fold of chimeric PTA-2357)
No unit in the answer, only the number.

Worked set:
PTA-2357 VH3/VK3 IgG1 antibody (antibody, V domains shown) VH: QVQLVQSGAEVKKPGASVKVSCKGSGYPFTDYTIHWVRQAPGQGLEWIGHISTYSGNTNNNQKFKGRATMTVDKSTSTAYMELRSLRSDDTTVYYCARGDYYGSFYKFEYWGQGTTVTVSS VL: DIQMTQSPSSLSASVGDRVTITCGASENIYGALNWFQRKPGKAPKLLIYGATNLADGMPSRFSGSGSGRDFTLTISSLQPEDFATYFCQNVLSIPYTFGQGTKLEIK :: 1.64
PTA-2357 VH2/VK2 IgG1 antibody (antibody, V domains shown) VH: QVQLVQSGAEVKKPGASVKVSCKGSGYPFTDYTIHWVRQAHGQGLEWIGHISTYSGNTNNNQKFKGRATMTVDKSTSTAYMELRSLRSDDSTVYYCARGDYYGSFYKFEYWGQGTTVTVSS VL: DIKMTQSPSSLSASVGDRVTITCGASENIYGALNWFQRKPGKAPKLLIYGATNLADGMPSRFSGSGSGRDFTLTISSLQPEDFATYFCQNVLSIPYTFGQGTKLEIK :: 1.36
PTA-2357 VH2/VK3 IgG1 antibody (antibody, V domains shown) VH: QVQLVQSGAEVKKPGASVKVSCKGSGYPFTDYTIHWVRQAHGQGLEWIGHISTYSGNTNNNQKFKGRATMTVDKSTSTAYMELRSLRSDDSTVYYCARGDYYGSFYKFEYWGQGTTVTVSS VL: DIQMTQSPSSLSASVGDRVTITCGASENIYGALNWFQRKPGKAPKLLIYGATNLADGMPSRFSGSGSGRDFTLTISSLQPEDFATYFCQNVLSIPYTFGQGTKLEIK :: 0.82
PTA-2357 VH4/VK3 IgG1 antibody (antibody, V domains shown) VH: QVQLVQSGAEVKKPGASVKVSCKGSGYPFTDYTIHWVRQAPGQGLEWIGHISTYSGNTNNNQKFKGRATMTVDKSTSTAYMELRSLRSDDTAVYYCARGDYYGSFYKFEYWGQGTTVTVSS VL: DIQMTQSPSSLSASVGDRVTITCGASENIYGALNWFQRKPGKAPKLLIYGATNLADGMPSRFSGSGSGRDFTLTISSLQPEDFATYFCQNVLSIPYTFGQGTKLEIK :: 2.06

Moving on to the next binder.
### Prompt Returns the measured Relative IC50 (fold of chimeric PTA-2357) for the input binder. Input: PTA-2357 VH1/VK3 IgG1 antibody (antibody, V domains shown) VH: QVQLVQSGPELKKPGASVKVSCKGSGYPFTDYTIHWVRQAHGQGLEWIGHISTYSGNTNNNQKFKGRATMTVDKSTSTAYMELRSLRSDDSTVYYCARGDYYGSFYKFEYWGQGTTVTVSS VL: DIQMTQSPSSLSASVGDRVTITCGASENIYGALNWFQRKPGKAPKLLIYGATNLADGMPSRFSGSGSGRDFTLTISSLQPEDFATYFCQNVLSIPYTFGQGTKLEIK
### Response 2

The values you see were collected from patent US20210371516A1.
